Data origin, for the record: patent US10519167B2

- Tested on: TE11 cell line
- protocol text: PRMT5 Biomarker Assay (symmetrical dimethylation of arginine, Histone H4 Arginine 3)
- Type: cell-based
- experimental parameters: Homo sapiens, TE-11; TE11 cells, 72 hours incubation, Di-Methyl Histone H4 Arginine 3 level
Where a name gives a salt, the structure may show the parent alone.
Attribute: IC50
Number in nM, nothing else.

Example entries begin here.
CCOc1cc(C(=O)N2C3CCC2COC3)ccc1C(=O)N(C)C[C@@H](O)[C@@H]1Cc2ccccc2CN1 [Compound 3, Hydrochloride]    11.7
CCOc1cc(C(=O)N2C3COCC2CC(O)C3)ccc1C(=O)NC[C@@H](O)CNC1Cc2ccccc2C1 (stereo partly drawn)    0.6

Moving on to another compound below.
Tested on TE11 cell line, the item CCOc1cc(C(=O)N2C3COCC2CC(O)C3)ccc1C(=O)NC[C@@H](O)[C@@H]1Cc2ccccc2CN1 (stereo partly drawn) [Compound 1, Hydrochloride] showed IC50 equal to 3.9

---

- target desc: Full-length PRMT5 enzyme co-expressed with His6-MEP50 (Homo sapiens (Human), UniProt O14744)
- Sequence (O14744 whole entry): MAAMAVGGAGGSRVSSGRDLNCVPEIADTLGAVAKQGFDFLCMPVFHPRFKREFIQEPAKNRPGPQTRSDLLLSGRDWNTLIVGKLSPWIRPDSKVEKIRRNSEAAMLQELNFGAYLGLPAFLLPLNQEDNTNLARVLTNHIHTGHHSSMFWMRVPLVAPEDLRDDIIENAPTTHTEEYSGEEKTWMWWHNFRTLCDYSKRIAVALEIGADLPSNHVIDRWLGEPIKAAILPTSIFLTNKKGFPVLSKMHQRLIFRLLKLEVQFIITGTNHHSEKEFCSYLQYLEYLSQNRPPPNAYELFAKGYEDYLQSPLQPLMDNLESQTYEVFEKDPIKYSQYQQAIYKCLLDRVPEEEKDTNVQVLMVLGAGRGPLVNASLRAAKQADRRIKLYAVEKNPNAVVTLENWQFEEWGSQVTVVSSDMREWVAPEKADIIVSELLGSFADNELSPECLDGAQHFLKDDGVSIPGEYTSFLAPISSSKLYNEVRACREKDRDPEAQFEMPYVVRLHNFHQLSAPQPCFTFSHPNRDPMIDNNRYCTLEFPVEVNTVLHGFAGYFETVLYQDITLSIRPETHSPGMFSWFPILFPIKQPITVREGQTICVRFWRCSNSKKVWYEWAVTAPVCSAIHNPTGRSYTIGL
- Sequence (Q9BQA1 whole entry partner): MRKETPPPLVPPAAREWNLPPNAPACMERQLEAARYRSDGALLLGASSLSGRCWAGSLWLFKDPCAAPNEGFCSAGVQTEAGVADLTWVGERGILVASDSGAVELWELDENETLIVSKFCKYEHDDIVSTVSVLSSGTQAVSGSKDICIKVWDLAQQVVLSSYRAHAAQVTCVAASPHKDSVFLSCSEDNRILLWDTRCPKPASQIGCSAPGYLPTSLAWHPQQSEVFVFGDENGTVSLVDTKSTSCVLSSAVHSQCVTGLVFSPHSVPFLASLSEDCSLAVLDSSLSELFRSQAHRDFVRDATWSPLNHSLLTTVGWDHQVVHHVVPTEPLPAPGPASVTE
Structures can show the parent of a compound that is named as a salt.
value type: pIC50
Please note pIC50 is a logarithmic value: minus log10 of concentration in mol/L. Answer with that number alone.

Example entries begin here.
CCOc1cc(C(=O)N2C3COCC2CC(O)C3)ccc1C(=O)NC[C@@H](O)CNC1Cc2ccccc2C1 (stereo partly drawn)    7.72
CCOc1cc(C(=O)N2C3COCC2CC(O)C3)ccc1C(=O)NC[C@@H](O)[C@@H]1Cc2ccccc2CN1 (stereo partly drawn) [Compound 1, Hydrochloride]    7.72

Moving on to another molecule below.
Input CCOc1cc(C(=O)N2C3CCC2COC3)ccc1C(=O)N(C)C[C@@H](O)[C@@H]1Cc2ccccc2CN1 [Compound 3, Hydrochloride] . Output pIC50: 7.44
